Assay: Solubility measurements by gravimetric method in solvents at 23° C. and 50° C.
Format: physicochemical
Conditions: IPA:DMSO (8:2), 23 °C, organic solvent or mixture, thermodynamic from solid, IPA:DMSO (8:2), 23° C.; read-out: Solubility
quantityName: solubility at 2 days (mg/mL)

[
  {
    "compound": "O=C(c1ccc(NS(=O)(=O)c2cccc3cccnc23)cc1)N1CCN(CC2CC2)CC1 [Form A, hemisulfate sesquihydrate]",
    "quantityName": "solubility at 2 days",
    "experimentalResult": 11
  }
]

###

Assay: Solubility measurements by gravimetric method in solvents at 23° C. and 50° C.
Assay type: physicochemical
Conditions: MeOH:Water (1:1), 23 °C, aqueous with cosolvent or surfactant or cyclodextrin, thermodynamic from solid, MeOH:Water (1:1), 23° C.; read-out: Solubility

[
  {
    "compound": "O=C(c1ccc(NS(=O)(=O)c2cccc3cccnc23)cc1)N1CCN(CC2CC2)CC1 [Form A, hemisulfate sesquihydrate]",
    "solubility at 2 days / µg/mL": 7000
  }
]
